From: patent USRE47150

Target: T1, mouse tissue factor pathway inhibitor (TFPI) (mouse, UniProt O54819 29-289, limits assumed)
T1 construct: bought; also called mTFPI; murine TFPI
T1 sequence (looked up): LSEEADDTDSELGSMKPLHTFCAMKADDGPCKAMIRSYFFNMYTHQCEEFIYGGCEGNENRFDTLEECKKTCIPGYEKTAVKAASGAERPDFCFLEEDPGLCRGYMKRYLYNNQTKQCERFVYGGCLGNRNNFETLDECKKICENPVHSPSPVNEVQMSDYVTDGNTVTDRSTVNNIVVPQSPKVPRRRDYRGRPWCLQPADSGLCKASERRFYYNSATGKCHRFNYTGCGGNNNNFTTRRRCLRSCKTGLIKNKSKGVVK
Experiment: SPR, TFPI immobilized
value_kind: Kd (pM)
Dear colleague, please return just the value in pM, with no unit written.

GET /value?item= B27.1 (4B7 HC N32D+D62R+Y112D/LC N35T+D97T) (Fab, V domains shown) VH: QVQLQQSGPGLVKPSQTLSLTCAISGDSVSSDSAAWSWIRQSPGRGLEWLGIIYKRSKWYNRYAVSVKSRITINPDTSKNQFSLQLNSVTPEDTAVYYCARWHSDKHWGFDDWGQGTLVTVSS VL: DIVMTQSPLSLPVTPGEPASISCRSSQSLVFSDGTTYLNWYLQKPGQSPQLLIYKGSNRASGVPDRFSGSGSGTDFTLKISRVEAEDVGVYYCQQYTSYPLTFGQGTKVEIKR &field=Kd returns 183
